Here the recorded Percent Effect is given for each entry.
# TARGET: Aspartate--tRNA(Asp/Asn) ligase (Mycobacterium tuberculosis (strain ATCC 25618 / H37Rv)); further: in the data most compounds retested in dose-response had high values
# Sequence (whole entry): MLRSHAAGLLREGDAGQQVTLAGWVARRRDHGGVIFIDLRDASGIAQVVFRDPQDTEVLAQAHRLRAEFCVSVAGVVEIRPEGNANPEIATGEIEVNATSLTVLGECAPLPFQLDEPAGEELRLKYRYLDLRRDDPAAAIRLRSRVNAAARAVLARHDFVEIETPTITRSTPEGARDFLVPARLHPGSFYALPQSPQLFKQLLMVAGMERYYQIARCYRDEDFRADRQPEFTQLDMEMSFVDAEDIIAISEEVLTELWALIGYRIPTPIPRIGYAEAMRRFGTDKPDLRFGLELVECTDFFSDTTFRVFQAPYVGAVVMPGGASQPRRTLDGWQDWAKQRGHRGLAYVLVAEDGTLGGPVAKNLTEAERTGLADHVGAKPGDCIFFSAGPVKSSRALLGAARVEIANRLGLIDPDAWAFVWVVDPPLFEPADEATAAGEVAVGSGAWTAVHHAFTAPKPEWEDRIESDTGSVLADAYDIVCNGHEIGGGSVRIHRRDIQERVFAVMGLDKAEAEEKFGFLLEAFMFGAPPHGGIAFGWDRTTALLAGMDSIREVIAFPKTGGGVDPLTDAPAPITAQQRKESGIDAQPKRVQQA
# TEST_SUMMARY: Assay for Asp RNA synthetase-1 from Mycobacterium tuberculosis
# Format: functional
# Set-up: scale not given: direction of the effect not stated beside the values
# ASSAY_SETUP: 30 µM
Kindly provide the numeric value in % only, without the unit symbol.

Study these solved cases before continuing.
CCOC(=O)N1CCN(C(=O)c2ccc3ccn(C)c3c2)CC1	-0.585
O=C(NCCO)C1(Cc2cc(-c3ccc(F)cc3F)no2)CCOCC1	2.58
O=C1CCC2(CCCN(c3ncc(F)cn3)CC2)N1CC1CC1 (centres undefined)	-1.91
CNC(=O)CC1CCN(Cc2nc(-c3ccc(SC)cc3)oc2C)CC1	-1.17
Cn1cc(N2CCC3(CCN(Cc4nccs4)C3)C2=O)cn1 (centres undefined)	-0.749

For this compound ( CCc1ccccc1-n1cc(O)c(C(=O)N2CCCCC2)n1 ), measured Percent Effect is 1.02

For this compound ( O=C(Cn1ccc2ccc(Br)cc21)NCc1ccc(C(=O)O)cc1 ), measured Percent Effect is 14.7

For this compound ( Cc1nc2n(n1)CC(Nc1cc(C(F)(F)F)nc3ncnn13)CC2 (centres undefined) ), measured Percent Effect is -5.49

For this compound ( CCN1CCN(S(=O)(=O)c2cc(Cl)c(Cl)cc2C)CC1 ), measured Percent Effect is -2.76

For this compound ( COc1c(Br)cc(Br)cc1CNC(C)Cn1cccn1 (centres undefined) ), measured Percent Effect is 2.09

For this compound ( CCOCC1CN(S(C)(=O)=O)Cc2cnn(C)c21 (centres undefined) ), measured Percent Effect is -0.204

====

Here the recorded Percent Effect is given for each entry.
# TARGET: Shiga toxin 2 (Escherichia coli O157:H7) (UniProt P09385+P09386)
# TEST_SUMMARY: E. coli 0.157:H7 Shiga Toxin SOP - stx2 screening assay
# Format: functional
# Design: scale not given: direction of the effect not stated beside the values
# ASSAY_SETUP: 30 µM
Kindly provide the numeric value in % only, without the unit symbol.

Study these solved cases before continuing.
Cc1ccccc1S(=O)(=O)N1CCCCC1c1ccn[nH]1 (stereo not drawn)	35.1
CN1CC2(CCN(Cc3ccoc3)CC2)COc2ccccc2S1(=O)=O	-18.6
Cc1nccc(CNC(=O)NCCOc2ccc(F)c(F)c2)n1	-21
CCc1n[nH]c(C2CN(C(=O)c3ccsc3)CCO2)n1 (stereo not drawn)	21.9
CN1CC(c2ccccc2)CC12CCN(C(=O)c1c(Cl)cnn1C)CC2 (stereo not drawn)	17

Test item Cn1ccc2ccc(C(=O)N3CCN(C(=O)N4CCOCC4)CC3)cc21 ; Shiga toxin 2 (Escherichia coli O157:H7) (UniProt P09385+P09386); reported Percent Effect was 7.14

Test item Clc1snnc1CN1CCCC(Cn2cncn2)C1 (stereo not drawn) ; Shiga toxin 2 (Escherichia coli O157:H7) (UniProt P09385+P09386); reported Percent Effect was -33

Test item Cc1ccc(NC(=O)C2CSCN2C(=O)c2cnccn2)c(C)c1 (stereo not drawn) ; Shiga toxin 2 (Escherichia coli O157:H7) (UniProt P09385+P09386); reported Percent Effect was -39.3

Test item CCc1nc(C2CCCN2C(=O)c2ccc3c(c2)nc(C)n3C)no1 (stereo not drawn) ; Shiga toxin 2 (Escherichia coli O157:H7) (UniProt P09385+P09386); reported Percent Effect was 2.43

Test item Cc1nc(CN2CCOCC3(CCN(c4ncccn4)C3)C2)cs1 (stereo not drawn) ; Shiga toxin 2 (Escherichia coli O157:H7) (UniProt P09385+P09386); reported Percent Effect was -14.6

Test item Cc1ccc(N2CC[C@H]3C[C@@H](C(=O)N4CCOCC4)O[C@H]3C2)nn1 ; Shiga toxin 2 (Escherichia coli O157:H7) (UniProt P09385+P09386); reported Percent Effect was 12.8

Test item NC(=O)c1cc(C2CCCN(CCCOc3ccccc3)C2)n[nH]1 (stereo not drawn) ; Shiga toxin 2 (Escherichia coli O157:H7) (UniProt P09385+P09386); reported Percent Effect was -26

Test item Cn1cc(NC(=O)N2CCC(NS(C)(=O)=O)CC2)ccc1=O ; Shiga toxin 2 (Escherichia coli O157:H7) (UniProt P09385+P09386); reported Percent Effect was -31.1

Test item CC(C)c1nc(C2CCCN2CCc2ccncc2)no1 (stereo not drawn) ; Shiga toxin 2 (Escherichia coli O157:H7) (UniProt P09385+P09386); reported Percent Effect was -7.28

Test item Cc1nc(C)n(CC2CCCN(c3ncnc4c3CCC4)C2)n1 (stereo not drawn) ; Shiga toxin 2 (Escherichia coli O157:H7) (UniProt P09385+P09386); reported Percent Effect was 15.3

Test item O=C(c1ccncc1)N1CCC(c2nc(O)cc(-c3cccnc3)n2)C1 (stereo not drawn) ; Shiga toxin 2 (Escherichia coli O157:H7) (UniProt P09385+P09386); reported Percent Effect was 4.42

Test item Cn1ccnc1CN1CCN(CC(O)c2cccc(F)c2)CC1 (stereo not drawn) ; Shiga toxin 2 (Escherichia coli O157:H7) (UniProt P09385+P09386); reported Percent Effect was 14

Test item c1ccc2sc(N3CCOC(Cn4cccn4)C3)nc2c1 (stereo not drawn) ; Shiga toxin 2 (Escherichia coli O157:H7) (UniProt P09385+P09386); reported Percent Effect was 12.4

Test item CCc1nc(CN(C)C2CCN(CCc3ccccn3)C2)no1 (stereo not drawn) ; Shiga toxin 2 (Escherichia coli O157:H7) (UniProt P09385+P09386); reported Percent Effect was -35.9

====

# TARGET: Shiga toxin 2 (Escherichia coli O157:H7) (UniProt P09385+P09386)
# TEST_SUMMARY: E. coli 0.157:H7 Shiga Toxin SOP - stx2 screening assay
# Type: functional
# Set-up: scale not given: direction of the effect not stated beside the values
# ASSAY_SETUP: 30 µM
Here the recorded Percent Effect is given for each entry.
Kindly provide the numeric value in % only, without the unit symbol.

Study these solved cases before continuing.
Cn1cc(CN2CCCn3cnc(COCC4CC4)c3C2)cn1	-1.47
CC(=O)N1[C@H](Cn2cncn2)C[C@@H]2CN(c3ccc(C)nn3)CC[C@@H]21	-4.03
COC(=O)c1sccc1S(=O)(=O)NCC1(O)CCOc2ccccc21 (stereo not given)	6.1
Cc1nc(-c2ccsc2)ccc1C(=O)NCCN1CCOCC1	-4.33
Cc1cnn(CCNCCCOc2ccccc2)c1	-1.37

For this compound ( CN1CCOC(CNC(=O)CCCOc2ccccc2F)C1 (stereo not given) ), measured Percent Effect is -33.1

For this compound ( Cc1nccn1C1CCCN(C(=O)c2cc3ccccc3[nH]2)C1 (stereo not given) ), measured Percent Effect is 0.146

For this compound ( Cc1cc(C)n(CC2CN(Cc3cscn3)CCO2)n1 (stereo not given) ), measured Percent Effect is -3.38

For this compound ( CCc1ccc(C(=O)N2CCC(c3nncn3CC)CC2)cc1 ), measured Percent Effect is 7.54

For this compound ( Cc1cc(CN2CCN(C(=O)NC(C)Cn3ccnc3)CC2)no1 (stereo not given) ), measured Percent Effect is 21

For this compound ( CN(C)c1nccc(N2CCO[C@H]3CN(CC4CCOCC4)C[C@H]32)n1 ), measured Percent Effect is -89.3

For this compound ( CC1CCN(C(=O)c2ccn(COc3ccc(F)cc3)n2)CC1 ), measured Percent Effect is -44.1

For this compound ( CC(O)CC(C)(C)CNC(=O)NCc1cccc(-n2cncn2)c1 (stereo not given) ), measured Percent Effect is 7

For this compound ( NC(=O)C1CCCN(Cc2c(-c3ccco3)[nH]c3ncccc23)C1 (stereo not given) ), measured Percent Effect is 3.34

Just for reference, ChEMBL document CHEMBL3988442 is where these values come from.
